- study.system: human GPR40 (Homo sapiens)
- Construct: expressed in transfected cells; host or cells: CHO cells
- assay.summary: Cell-based aequorin assay
- test.context: CHO cells stably transfected with GPR40 and aequorin; 0.01% HSA; aequorin luminescence; read-out: Relative EC50
test.readout: EC50

Lookup result for O=C(O)CC(c1ccc(OC2Cc3ccccc3C2)cc1)c1cc(F)ccc1F (racemic) [Example 37] ; measured EC50: 100 to 1000 nM

Lookup result for O=C(O)CC(c1ccc(OC2CCCCc3ccccc32)cc1)c1cccs1 (racemic) [Example 49] ; measured EC50: 1000 to 10000 nM

Others:
Lookup result for CC#C[C@@H](CC(=O)O)c1ccc(OC2CCc3ccccc32)cc1 (stereo partly drawn) [Example 46] ; measured EC50: 10 to 100 nM

---

Overview of recorded pEC50 for various compounds
- study.system: human GPR40 (Homo sapiens)
- assay.summary: Cell-based aequorin assay
- test.context: CHO cells stably transfected with GPR40 and aequorin; 0.01% HSA; aequorin luminescence; read-out: Relative EC50
pEC50: −log10 of the molar value.

Example results:
Lookup result for CC#C[C@H](CC(=O)O)c1ccc(OC2CCc3cc(-c4cc(OCC)ccc4F)ccc32)cc1 (stereo partly drawn) [Example 66] ; measured pEC50: < 5.00

Lookup result for Cc1cc2c(cc1COc1ccc([C@H](CC(=O)O)c3nccn3C)cc1)C(C)(C)CCC2(C)C [Example 93] ; measured pEC50: 6.00 to 7.00

Lookup result for Cn1ccnc1[C@@H](CC(=O)O)c1ccc(OCc2ccc3c(c2)C(C)(C)CCC3)cc1 [Example 86] ; measured pEC50: 6.00 to 7.00

Lookup result for O=C(O)CC(c1ccc(OC2CCc3cc(Br)ccc32)cc1)n1cccn1 (stereo not drawn) [Example 47] ; measured pEC50: 6.00 to 7.00

Consider the additional compound presented here.
Lookup result for CC#C[C@@H](CC(=O)O)c1ccc(OC2CCCc3ccccc32)cc1 (stereo partly drawn) [Example 24] ; measured pEC50: 7.00 to 8.00

---

Overview of recorded pEC50 for various compounds
- study.system: human GPR40 (Homo sapiens, UniProt O14842)
- Construct: expressed in transfected cells; host or cells: CHO cells
- Sequence (O14842 whole entry): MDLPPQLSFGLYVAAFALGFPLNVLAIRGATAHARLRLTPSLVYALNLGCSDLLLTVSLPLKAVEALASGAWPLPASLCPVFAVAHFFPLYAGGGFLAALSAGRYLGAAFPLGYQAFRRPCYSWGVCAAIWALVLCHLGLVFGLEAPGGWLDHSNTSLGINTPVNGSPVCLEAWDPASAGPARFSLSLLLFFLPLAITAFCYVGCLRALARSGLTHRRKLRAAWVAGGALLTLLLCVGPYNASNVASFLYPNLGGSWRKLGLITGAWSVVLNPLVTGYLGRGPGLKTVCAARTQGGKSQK
- assay.summary: Cell-based aequorin assay
- test.context: CHO cells stably transfected with GPR40 and aequorin; 0.01% HSA; aequorin luminescence; read-out: Relative EC50
- Description: Cell-based aequorin assays were employed to characterize the modulatory activity of compounds on the GPR40 signaling pathway. In an exemplary assay, CHO cells were stably transfected with both GPR40 and Aequorin (Euroscreen). Cells were detached from the tissue culture dish with 2 mL of trypsin (0.25% (w/v)). […] Aequorin luminescence measurements were made using an EG&G Berthold 96-well luminometer, and the response was measured over a 20 second interval after cells and compounds were mixed. […]
pEC50: −log10 of the molar value.

Example results:
Lookup result for CC#C[C@@H](CC(=O)O)c1ccc(OC2CCc3c(-c4ccc(OC(F)(F)F)cc4)cccc32)cc1 (stereo partly shown) [Example 6] ; measured pEC50: 7.00 to 8.00

Lookup result for O=C(O)CC(c1ccccc1)c1ccc(OC2CCc3cc(Br)ccc32)cc1 (racemic) [Example 41] ; measured pEC50: 6.00 to 7.00

Lookup result for O=C(O)CC(c1ccc(OC2CCc3cc(Cl)ccc32)cc1)c1ncco1 (racemic) [Example 33] ; measured pEC50: 5.00 to 6.00

Others:
Lookup result for CC1(C)CCC(C)(C)c2cc(COc3ccc([C@H](CC(=O)O)c4ccc(F)cc4)cc3)ccc21 [Example 89] ; measured pEC50: 6.00 to 7.00

Lookup result for CC#C[C@@H](CC(=O)O)c1ccc(OC2CCc3cc(F)ccc32)cc1 (stereo partly shown) [Example 14] ; measured pEC50: 7.00 to 8.00

Lookup result for Cn1cnnc1[C@@H](CC(=O)O)c1ccc(OCc2ccc3c(c2)C(C)(C)CCC3(C)C)cc1 [Example 84] ; measured pEC50: 6.00 to 7.00

Lookup result for CC#C[C@H](CC(=O)O)c1ccc(OC2CCc3cc(-c4cccc(OCC)c4)ccc32)cc1 (stereo partly shown) [Example 59] ; measured pEC50: < 5.00

Lookup result for CC#C[C@@H](CC(=O)O)c1ccc(OC2Cc3ccccc3C2)cc1 [Example 27] ; measured pEC50: 7.00 to 8.00

Sourced from patent US7582803B2
